# Test system: human liver microsomes
# Assay Summary: Enzyme kinetics of prodrug activation to araCMP in human liver microsomes
# Assay Setup: activation to araCMP; human liver microsomes lot RQX
Here the recorded Km is given for each entry.
Field format: number, assumed µM, no unit text.

Nc1ccn([C@@H]2O[C@H](CO[P@]3(=O)OCC[C@H](c4ccncc4)O3)[C@@H](O)[C@@H]2O)c(=O)n1 | 3130

Please examine the following record next.
Km measured on Nc1ccn([C@@H]2O[C@H](CO[P@@]3(=O)OCC[C@@H](c4ccncc4)O3)[C@@H](O)[C@@H]2O)c(=O)n1 = 1080

---

# Assay Summary: Single dose i.p. bolus liver levels / liver targeting in mice
# Assay Setup: male, Swiss Webster, mouse, plasma, ip, 100 mg (cytarabine equivalents)/kg
Quantity Measured: AUC(0-t)

AUC(0-t) measured on Nc1ccn([C@@H]2O[C@H](CO)[C@@H](O)[C@@H]2O)c(=O)n1 = 121 µM·h
